# SYSTEM_NAME: T1, FX activation peptide 12-mer QTQPERGDNNLT (human)
# T1 peptide: QTQPERGDNNLT-biotin
# PROTOCOL: peptide ELISA
Ends that are not written are not given here.
Decision: ELISA signal relative to background >= 0.9 yields Satisfied, all other cases yield Not satisfied.

Query block: Would you say Nb 701C06 (VHH, monovalent Nanobody; not shown: C-terminal FLAG3 and HIS6 tag) VHH: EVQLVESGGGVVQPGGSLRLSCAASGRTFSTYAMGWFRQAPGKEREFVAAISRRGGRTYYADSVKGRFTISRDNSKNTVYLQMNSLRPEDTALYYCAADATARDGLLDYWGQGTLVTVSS shows ELISA signal relative to background at minimum 0.9?
Result block: Satisfied

Query block: Hello, I need to know if Nb 730C03 (VHH, monovalent Nanobody; also called Nb 730003; not shown: C-terminal FLAG3 and HIS6 tag) VHH: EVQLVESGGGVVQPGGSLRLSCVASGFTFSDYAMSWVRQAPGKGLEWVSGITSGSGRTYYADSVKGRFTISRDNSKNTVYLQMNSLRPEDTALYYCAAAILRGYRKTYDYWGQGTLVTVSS has measured ELISA signal relative to background not below 0.9. Thanks!
Result block: Satisfied

Query block: hey, is ELISA signal relative to background for this one >= 0.9? Nb 701B09 (VHH, monovalent Nanobody; also called Nb 701609; not shown: C-terminal FLAG3 and HIS6 tag) VHH: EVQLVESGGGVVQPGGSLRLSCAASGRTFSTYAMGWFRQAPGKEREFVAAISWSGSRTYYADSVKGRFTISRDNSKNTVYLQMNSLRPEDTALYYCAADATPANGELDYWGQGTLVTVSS
Result block: Not satisfied

Query block: Could you tell me if the measured ELISA signal relative to background of Nb 701D07 (VHH, monovalent Nanobody; not shown: C-terminal FLAG3 and HIS6 tag) VHH: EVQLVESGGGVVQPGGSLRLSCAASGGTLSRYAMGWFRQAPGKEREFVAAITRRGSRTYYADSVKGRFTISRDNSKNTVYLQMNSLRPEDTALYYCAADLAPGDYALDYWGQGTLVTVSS reaches 0.9 or more?
Result block: Not satisfied

Query block: State whether the measured ELISA signal relative to background reaches 0.9, counting equality as reaching it, for Nb 501A02 (VHH, monovalent control Nanobody; also called control Nanobody; not shown: C-terminal FLAG3 and HIS6 tag) VHH: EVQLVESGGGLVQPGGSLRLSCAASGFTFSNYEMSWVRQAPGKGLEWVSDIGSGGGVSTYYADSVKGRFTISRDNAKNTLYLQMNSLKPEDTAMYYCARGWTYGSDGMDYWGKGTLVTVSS
Result block: Not satisfied
